- Test system: house fly (Musca domeestica)
- Measurement Description: Test Example 3: treated filter paper with sucrose bait, house fly female adults, mortality
- Type: in vivo
- Measurement Setup: 24 h
- Source text: […]
Answer each item with its documented mortality at 500 µg/mL.
Report only the number, with the unit % understood.

Inquiry: State the recorded mortality at 500 µg/mL for this entry: NC(=Nc1c(Cl)cc(C(F)(F)F)cc1Cl)C(F)(F)Cl [present compound 5]
Reply text: 100

Inquiry: If you can, please state the reported mortality at 500 µg/mL value of NC(=Nc1c([N+](=O)[O-])cc(C(F)(F)F)cc1[N+](=O)[O-])C(F)(F)C(F)(F)Cl [present compound 35] .
Reply text: 100

Inquiry: # lookup: mortality at 500 µg/mL of NC(=Nc1c([N+](=O)[O-])cc(C(F)(F)F)cc1[N+](=O)[O-])C(F)(Br)C(F)(F)F (stereo not shown) [present compound 29]
Reply text: 100

Inquiry: I would be grateful if you could share the reported mortality at 500 µg/mL for NC(=Nc1c([N+](=O)[O-])cc(OC(F)(F)F)cc1[N+](=O)[O-])C(F)(F)C(F)(F)C(F)(F)F [present compound 45] .
Reply text: 100
